Biological target: 2C8 (Homo sapiens)
Sequence (P10632 1-490): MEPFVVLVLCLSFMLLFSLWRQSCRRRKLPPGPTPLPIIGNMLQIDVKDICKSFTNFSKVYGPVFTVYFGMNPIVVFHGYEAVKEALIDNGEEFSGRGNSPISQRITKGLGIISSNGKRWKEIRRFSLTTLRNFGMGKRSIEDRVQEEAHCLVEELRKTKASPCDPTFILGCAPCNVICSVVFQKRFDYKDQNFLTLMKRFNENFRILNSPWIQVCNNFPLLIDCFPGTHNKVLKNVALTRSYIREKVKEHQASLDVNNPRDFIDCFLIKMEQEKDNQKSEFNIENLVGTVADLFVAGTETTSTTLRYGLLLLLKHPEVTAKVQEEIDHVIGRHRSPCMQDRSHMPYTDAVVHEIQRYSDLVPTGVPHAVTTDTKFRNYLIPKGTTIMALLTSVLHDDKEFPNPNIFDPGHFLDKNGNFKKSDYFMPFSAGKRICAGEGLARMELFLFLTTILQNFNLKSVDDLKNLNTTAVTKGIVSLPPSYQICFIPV
measurement_label: IC50 (µM)

smiles_record	measurement_label	experimental_value
CCc1nc2ncc(C)cn2c1C(=O)NCc1ccc(-c2cc3n(n2)CCN(S(=O)(=O)C(F)(F)F)C3)c(F)c1	IC50	10.6
